Tested on: Hs578T
Experiment: normalised response (% of control), CellTox Green; higher = less cell death (100 = DMSO, 0 = benzethonium chloride kill control)
Conditions: incubation time: 72 h
Measurement name: normalised response

>>> result("CCn1c(-c2nonc2N)nc2cnc(Oc3cccc(NC(=O)c4ccc(OCCN5CCOCC5)cc4)c3)cc21 (1000 nM)")
"96.5%"
>>> result("O=C(Nc1ccncc1)C(=O)c1cn(Cc2ccc(Cl)cc2)c2ccccc12 [Indibulin] (1000 nM)")
"94.6%"
>>> result("CCOC(=O)CCNc1cc(N2CCc3ccccc3CC2)nc(-c2ccccn2)n1 [GSK-J4] (1000 nM)")
"80.2%"
>>> result("COc1cc2c(NC3CCN(C(C)C)CC3)nc(N3CCC(F)(F)CC3)nc2cc1OCCCN1CCCC1 [UNC0642] (1000 nM)")
"67.8%"
